Molecular target: 5-hydroxytryptamine receptor 2A (Homo sapiens, UniProt P28223)
Sequence (P28223 whole entry): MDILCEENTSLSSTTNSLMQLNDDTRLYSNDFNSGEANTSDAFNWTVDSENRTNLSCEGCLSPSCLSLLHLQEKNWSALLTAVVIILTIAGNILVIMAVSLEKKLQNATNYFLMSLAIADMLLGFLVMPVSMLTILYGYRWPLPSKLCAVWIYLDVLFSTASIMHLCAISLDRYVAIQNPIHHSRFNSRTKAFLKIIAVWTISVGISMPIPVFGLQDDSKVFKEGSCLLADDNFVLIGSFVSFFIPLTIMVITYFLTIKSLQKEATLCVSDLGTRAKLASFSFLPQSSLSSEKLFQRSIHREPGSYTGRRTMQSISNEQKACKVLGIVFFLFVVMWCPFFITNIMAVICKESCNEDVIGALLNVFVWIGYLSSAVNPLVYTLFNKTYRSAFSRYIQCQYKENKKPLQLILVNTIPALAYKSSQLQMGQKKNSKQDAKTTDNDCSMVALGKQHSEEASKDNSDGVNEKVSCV
Assay: Agonist activity at 5-HT2AR (unknown origin) stably expressed in HEK293 cells measured after 1 hr by fluorescence based Ca2+/Fluo-4 assay
Assay type: cell-based
Conditions: read-out: EC50
Below, each entry is listed alongside its reported pEC50.
Note on pEC50: it is the negative log10 of concentration, concentration in mol/L.

# count of solved cases: 2
1. COc1cc(C[C@@H]2CCC[C@@H](c3ccccc3O)N2)c(OC)cc1C#N	7.04
2. COc1cc(CC2CCCC(c3ccccc3O)N2)c(OC)cc1C#N (stereo not drawn)	5.57

Proceed to the following item.
Query: What does the data say about its pEC50? Entry: `COc1cc(C[C@H]2CCC[C@H](c3ccccc3O)N2)c(OC)cc1C#N`
Reply: 6.03
